The following compounds are listed with their measured IC50 values.
System: Z138 cells
Test: MTT cell proliferation assay, Z138 cells
Type: cell-based
Details: Homo sapiens, Z-138; Z138 cells (mantle cell lymphoma line); incubation approximately 64-72 hours

Reference set (2 entries):
# compound, IC50
measured = [
    ("Nc1ccc(/C=C/C(=O)NCc2cc3cc(-c4ccc(C(=O)N5CC6(COC6)C5)cc4)cc(C(F)(F)F)c3s2)cn1", "< 1 µM"),
    ("Nc1ccc(/C=C/C(=O)NCc2cc3cc(-c4ccc(C(=S)N5CCC(F)(F)CC5)cn4)cc(C(F)(F)F)c3s2)cn1", "< 1 µM"),
]

From here, focus on the item given below.
Given the compound Nc1ccc(/C=C/C(=O)NCc2cc3cc(-c4ccc(C(=O)N5CCC(O)(C(F)(F)F)C5)cn4)cc(C(F)(F)F)c3s2)cn1 (stereo not drawn) , what is its reported IC50?
< 1 µM

----------
The following molecules are listed with their measured IC50 values.
System: Z138 cells
Assay: MTT cell proliferation assay, Z138 cells
Type: cell-based
Conditions: Homo sapiens, Z-138; Z138 cells (mantle cell lymphoma line); incubation approximately 64-72 hours

Reference set (4 entries):
# molecule, IC50
records = [
    ("Nc1ccc(/C=C/C(=O)NCc2nc3cc(-c4ccc(C(=O)N5CCC(F)(F)CC5)cc4)cc(C(F)(F)F)c3s2)cn1", "< 1000 nM"),
    ("CC1(C)CN(C(=O)c2ccc(-c3cc(C(F)(F)F)c4sc(CNC(=O)/C=C/c5ccc(N)nc5)cc4c3)cc2)CCO1", "< 1000 nM"),
    ("CC1(O)CCN(C(=O)c2ccc(-c3cc(C(F)(F)F)c4sc(CNC(=O)/C=C/c5ccc(N)nc5)cc4c3)nc2)CC1", "< 1000 nM"),
    ("CC1(F)CCN(C(=O)c2ccc(-c3cc(C(F)(F)F)c4sc(CNC(=O)/C=C/c5ccc(N)nc5)cc4c3)nc2)C1 (centres unmarked)", "1000 to 5000 nM"),
]

From here, focus on the item given below.
Given the molecule CC1(C)COCCN1C(=O)c1ccc(-c2cc(C(F)(F)F)c3sc(CNC(=O)/C=C/c4ccc(N)nc4)cc3c2)cc1 , what is its reported IC50?
1000 to 5000 nM

----------
System: Z138 cells
Test: MTT cell proliferation assay, Z138 cells
Format: cell-based
Details: Homo sapiens, Z-138; Z138 cells (mantle cell lymphoma line); incubation approximately 64-72 hours
value_type: IC50

# molecule, value_measured
rows = [
    ("Nc1ccc(/C=C/C(=O)NCc2cc3cc(-c4ccc(C(=O)N5CC[C@H](F)C5)cc4)cc(C(F)(F)F)c3s2)cn1 [compound 525]", "1000 to 5000 nM"),
    ("Nc1ccc(/C=C/C(=O)NCc2nc3cc(-c4ccc(C(=O)N5CCC(F)(F)CC5)cc4)cc(-c4ccc(F)cc4)c3s2)cn1 [compound 535]", "1000 to 5000 nM"),
    ("Nc1ccc(/C=C/C(=O)NCc2cc3cc(-c4ccc(C(=O)N5CCOCC5)cn4)cc(C(F)(F)F)c3s2)cn1 [compound 506]", "1000 to 5000 nM"),
    ("Nc1ccc(/C=C/C(=O)NCc2cc3cc(-c4ccc(C(=O)N5CCC(F)(F)CC5)cc4)cc(C(F)(F)F)c3s2)cn1 [compound 518]", "1000 to 5000 nM"),
    ("Nc1ccc(/C=C/C(=O)NCc2cc3cc(-c4ccc(C(=O)N5CCC(F)CC5)cn4)cc(C(F)(F)F)c3s2)cn1 [compound 517]", "1000 to 5000 nM"),
    ("Nc1ccc(/C=C/C(=O)NCc2nc3cc(-c4ccc(C(=O)N5CCC(F)(F)CC5)cn4)cc(C(F)(F)F)c3[nH]2)cn1 [compound 530]", "> 10000 nM"),
]

Given the molecule Nc1ccc(/C=C/C(=O)NCc2cc3cc(-c4ccc(C(=O)N5CCC(F)CC5)cc4)cc(C(F)(F)F)c3s2)cn1 [compound 529] , what is its reported IC50?
> 10000 nM

Now consider Cn1c(CNC(=O)/C=C/c2ccc(N)nc2)cc2cc(-c3ccc(C(=O)N4CCC(F)(F)CC4)cn3)cc(C(F)(F)F)c21 [compound 502] .
> 10000 nM
